These data points were gathered from the supplement of paper PMC9170038.

So I've got a bunch of sequences here, and I need their apparent KD of K4 kissing-loop reporter values.
# System: K4 kissing-loop RNA reporter
# Test: apparent KD of K4 kissing-loop reporter; higher = weaker reporter binding
# Run conditions: Eterna round: R107; input ligand: none
State just the number; it will be interpreted in nM.

Which apparent KD of K4 kissing-loop reporter value is on record for UGACGUUUGGGAAGGAGCGGAAUGUAAUACGGAACGCGUGGAGAUGCAGUGAUGUUGCAGAUCCAGGUAGGUCGCCCAAGGGACG [Zainat] ?
76.2

Then this sequence: AGUGUUGUAUGACGGUUUGUCACUUAGGAUCAGGAUAUAUAAACAAAUAGAAGGGAUGGCGGAGUGAUGUUCCGCCGGCCGCCAU [FMN A Exl V9]
104

Please answer likewise for UGACUGGACUGAAGGAGCGCGAAAACUCCUAGUGAUGUUAGGAAAACGAGACAAAGUCUCGCGCAGGUAGGUCGCAGUCUAGUCU [ArgBS 20 #SwitchBubble #StaticStem]
121

Please answer likewise for UGAUAGGACAGAAGGAGCGGGAGUGAUGUUCCCAAUAAAAGGUCUAGCAAAGCUAGACCCUCCCAGGUAGGUCGCUGUCCUAUCU [ArgBX 2 #Palindromic #SwitchBubble #StaticStem]
268

Now the sequence GGUGUUGUUUGUGCUGUUUUCCUCGUUCCUCGAGGACCGGUACGGCCGCCACUCGAGUGAUGUUUGGGUAGCGAUCCUUGUUAGU [Bdazzled - #7 Exc. Tryptophan A]
341

Follow-up item: AGAUAGGGCUGAAGGAGCGUCGGAGAAGAGAAGAAGGAAUCCAGUGAUGUUGGAUAAAUCCGACAGGUAGGUCGCAGUUUUAUGA [hbob_SS_Arginine_B_2t138]
99

Same again, this time with UGGAUAUAGUGAUGUUAUAUAGAGAUAGAUACCAGUUAAGAGAAUAGCCCUUGGCAGCUGAAAGAAGUAUCAUUAGAGAAGAAUG [ExTheophyl.Ab]
207

Please answer likewise for AUUGCACCUGCGGCCGCCACUCACUCCGGGCUGCUGGCCAGUGAUGUUGGUACGGCUGCCGGUUAGAGGACCGGGCAGGAGCUAA [Esage]
107

Now the sequence UAUUGCCACAGAGUGAUGUUCUGGCCGGAUACCAGCAUGCAAUUAUGCCCUUGGCAGCCGGAUGCGCGUCCAGCCACCGGGCCUG [theeternabot_exclusion_KL_Theo_A_29]
1310

Record: UAUGAAGGUGGAGGAUAUUGAUUGAAUCUUGGUCAGGAGUGAUGUUCCGGGAAGCCUUGGAUUCAUCGAGAAGGCCAAGGAUAGU [Extra 3]
344

Try the sequence UGUCGAGUGAUGUUCGAUGUGGUGCAUUCAGAGGAUAUAGGGUGGGCUAGAAGGCUGAAAAGUGCUUCGAGUGAUGUUCGAAGAU [Exclusion FMN A GF8]
144

Do the same for "AAAUAGAUCAGUCAUCCAGUGAUGUUGGAAGGAGCGUGCGAAAGCACAGGUAGGUCGCCAAAAUAAAAGUGGCUGAUCAAAAUAA" please
302

###

# System: K4 kissing-loop RNA reporter;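 further: bound reporter read as fluorescence of individual clusters on recovered sequencing chips by microscopy, with normalized cluster intensities fitted with a binding model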
# Test: apparent KD of K4 kissing-loop reporter; higher = weaker reporter binding
# Run conditions: Eterna round: R107; input ligand: theophylline 20 uM
Endpoint name: apparent KD of K4 kissing-loop reporter (nM)
Respond with the bare value in nM.

Suppose we examine the sequence AGACCACAAAGUGGUCAGUGUUCGCUGCCGCGAGGACCGGUACGGCCGCCACUCGCGAGUGAUGUUCGCGAGGGCAGCGAACACA [Omei KL Tryp A Exc A v4] ; what apparent KD of K4 kissing-loop reporter value has been reported?
86.8

Query CCAUCGCUAUUCGAUACCAGUCAGGAGGUCUUUGGCCUCCUAUUGGAGUGAUGUUCCAUAGACCCUUGGCAGCGAAUAGUGAUGG [Theophylline B K4 15] next
613

Next up: ACAGAUUGAUUGAUUCACUUUGUAGCUGCGAAGGAUAUUAAGACGCUAAGAAGGUCGCUUAAGGGUAGUGAUGUUACCUUUUGAG [theeternabot_sameState_KL_FMN_A_27]
56.6
